# EXPERIMENTAL_PROTOCOL: label from the status in PepcDB records
MEASUREMENT_KIND: protein production

Example entries begin here.
ITEM_SEQUENCE	protein production
YLDLWQTQDAKIRAKLAAVFQAEQNLNEAAIAYCLARALPEETAIFFANSMVVRYAEFFWQLNDQQILPYFNRGANGIDGTLSTALGIAENHSPAVLLTGDLALLHDINGFLTLSKFTGSLTIIVINNQGGGIFEMLPIAEEKDIFEDYFATPQTVEFSKVCDLYGIEYQAIQTKADLMQTCAILPPRGVRLLEVKTNRNQAMTWLKDLFQ	failed
MTDTLLVTSTNAGTGKTAVSLALARLAGDRDRTVGYMKPKGTRLQSNVGKTLDADPLLARDLLDLDAEIHDLEPVVYSPTFIQGAVRGREDSANLADRVRDAYDELATDRDVMLVEGAGTPTTGGIVDLTDGDIAALLDARAIVVADYTGPSDVDDVLAAADALGDRCAGVVFNAVADAVYDDVESEVTPFLESQGIPVLGVLPVERDLAGVTVDDLASELGATVLTEDTATTDAIVERFLVGAMSSESALSHFRRTKDAAVITGGDRADIQTAALDAPGVQCLVLTGGHRPSGAVLGKATDAGVPVLSVDADTLTTLERAEELVRDGRVRDEHTVDVMQRLLHDHADTDRLLD	failed
MAYDDMGFPVSVSGPARRVVSLVPSLTEAIAHTRREALVGATDWCTHPAGLDVARVRGTKNPDRAAIAALRPDLVIANKEENRELDVRMLRAAGIPVWVTVIQTVPQALDSLTRLFTEALCWPLPDWLVEARRLWSHPLPPVRARVAIPVWRDPWMVVGSATFTGDLARRLGLANVFADHPERYPKVALADIDRDDVDLVVLPDEPYAFTPQDGPEAFRCAPTVLVSGRLLTWYGPSLLHAKEGLAALVQ	failed
MDIEDLQTFVAVADAGGVSAAARRLGISKSIVSRRLLRVEAELGVQLLARTTRGAALTEAGITFRDHAARASAEIDTAKETILPTGELRGRLRVAMPLTFGPTHFAPVLADMARQHPQLHIHTSYSDRFVDLIAEGFDCAIRGAYLQDSNLIAKRVGPIHGKLVASPDYIKAHGSPGTLDELVTHQALMQGTEAWQFMDGDKIVTVQPQGRFKADSATALAAAAAAGLGIAWLPDCITYGYVASGALVPIMTRYPVPPGAAYVVRPPGQHPTRKVRALTEMLTEYFKRNPDVWGLDR	failed
MSNVSALPIQPETTPSGGGSVRDRVSPQEWEVRVKLAAAYRLAALKRWTDHIYTHFSARVPGPDEHFLINAFGLLFDEITASNLVKVDIDGTIVDDPTGLGINYAGYVIHSAIHAARHDLQAVLHTHTRDGIAVSAQKGGLLPISQHSIAFSGRVAYHGYEGIALDLSERERLVADLGDKSVMILRNHGLLTGGVSVEHAFQQLHALEYACNIQIAAQSAGNDELVFPPQEVIARVEEQAKVIKDGHGPGVARHWNALIRELERSGTDYRE	failed
MKIVSKSSPLPLHYQLKMILQEMIENEELLPGDTIPTERELCEIQKISRMTVNKAILSLVSEGILYREQGKGTFVAKKKEKQQLTKLKSFTEEMREKGLNISTKILSFEIKTATKHISTLLELPHKKMKVIEIIRLRLTDNDPSAIETVVLPLYLFSDMTKEVIDGKSLYNTFREKYGYEPTKAKQTIEPIMLTDYEAKFLNQVGNSLALLFRRLTYRKDGVPIEYTKSIYRSEKYKYEVILT	failed

For reference, reported protein production for MLSKIVDINAARQNIDMKVKLLSLNKRTIKNDRGETVYYYGIIGDETGTVPFTAWTFPPAVRVGDVIEIRSCYSNIYNGKIRIYIDGRSEVILKPDVEMEVKRSSDLVKIRDVSLSTPYVSVIGKITGIHKKEYESDGTTKSVYQGYIEDDTARIRISSFGKQLQDSDVVRIDNARVAQFNGYLSLSVGDSSRIESVNVNIPEKPRHIFISEIRSPVGGITIVGFVVSVGQGSRIFTKCSVCRRIVEDGTCKDHPKAPVYPDIFGYFSISDGTGTITCYINSDSFLPYAGISQDQFRRDAYSMNPNSLIKKNLLGKCISVSGDLRSQDDRIVMNVQSMKAISAEDNREIESIIEEEFQ stands at failed

For reference, reported protein production for MPPIIKRRVMRKIIIASQNPAKVNAVRSAFSTVFPDQEWEFIGVSVPSEVADQPMSDEETKQGALNRVRNAKQRHPGAEYYVGLEAGIEENKTFAWMIVESDQQRGESRSACLMLPPLVLERLRQAKELGDVMDEVFGTENIKQKGGAIGLLTRHHLTRSTVYHQALILALIPFINPEHYPSA stands at not failed

For reference, reported protein production for MSLIPKVSVIVPIYNVEKYLDQCVQALLAQTLSDIEIILIDDESPDNCPKICDDYAAQYPNIKVIHKKNAGLGMACNSGLDVATGEYVAFCDSDDYVDSDMYMTMYNVAQKYTCDAVFTGLKRITMAGIPTGTVTHQKEFKLYKNKNEIHTLLKDLIASDPYAREERAIQVSAKVVLYRRNLIEKKHLRFVSERILPSEDLIFNVDVLANSNIVCVLPQTFYNYRTNPISISEGHHHHHH stands at not failed

For reference, reported protein production for MPQIYFSAAERRPKFVMKTGLSATEKNEVIKAAYRQIFERDITRAYSLSISDLESKVKNGDISMKEFVRRLAKSPLYQKQFYQPFINSRVIELAFRHILGRGPSSREEVQKYFSIISNGGLPALVDALVDSAEYSDYFGEETVPYLRGLEHHHHHH stands at failed

For reference, reported protein production for MTRKQMKTLVNRLFIISTFLLTSVQSYANFIDISEQQINQYLATKLTEKFRMQDQIGIPGLFQLNYHLHNLTTQIGRTDANKVSLSGIIDGVLLLKGKSYDAQLNLNIDTTPYYDTKTGKLYLKDIRLLNYSASPEKYQDKLQAFLPLLVDGLSKMLNNTPIYTLDENKTQEALLKKFGKAIVIEQGKLSLQTALF stands at failed
